# experiment-description: Phase 1a single ascending dose study: UV-4 plasma concentrations and PK parameters (LC-MS/MS, noncompartmental)
# Assay type: in vivo
# test-conditions: both sexes, human, plasma, po, 3 mg, 3 mg single oral dose; Geo Mean; read-out: Cmax

item-smiles | unit-text | Cmax
COCCCCCCCCCN1C[C@H](O)[C@@H](O)[C@H](O)[C@H]1CO | µg/mL | 0.0221

###

# experiment-description: Phase 1a single ascending dose study: UV-4 plasma concentrations and PK parameters (LC-MS/MS, noncompartmental)
# Type: in vivo
# test-conditions: both sexes, human, plasma, po, 360 mg, 360 mg single oral dose; Geo Mean; read-out: t1/2 (converted)
quantity-kind: half-life (h)

item-smiles | quantitative-readout
COCCCCCCCCCN1C[C@H](O)[C@@H](O)[C@H](O)[C@H]1CO | 8.1

###

# experiment-description: Phase 1a single ascending dose study: UV-4 plasma concentrations and PK parameters (LC-MS/MS, noncompartmental)
# Assay type: in vivo
# test-conditions: both sexes, human, plasma, po, 1000 mg, 1000 mg single oral dose; Geo Mean; read-out: Cmax
quantity-kind: Cmax (ng/mL)

item-smiles | quantity-kind | unit-text | quantitative-readout
COCCCCCCCCCN1C[C@H](O)[C@@H](O)[C@H](O)[C@H]1CO | Cmax | ng/mL | 13000

###

# experiment-description: Phase 1a single ascending dose study: UV-4 in pooled urine, urinary recovery and renal clearance
# Format: in vivo, human
# test-conditions: human, urine, oral, 10 to 1000 mg dose range, 48 hours; read-out: Urinary recovery, range of dose group means

compound | dose excreted
COCCCCCCCCCN1C[C@H](O)[C@@H](O)[C@H](O)[C@H]1CO [UV-4, N-(9’-methoxynonyl)-1-deoxynojirimycin] | 46.4 to 55.1%

###

# experiment-description: Phase 1a single ascending dose study: UV-4 plasma concentrations and PK parameters (LC-MS/MS, noncompartmental)
# Format: in vivo
# test-conditions: both sexes, human, plasma, po, 720 mg, 720 mg single oral dose; Ar Mean; read-out: AUC(0-8)
quantity-kind: AUC(0-t)

compound | result
COCCCCCCCCCN1C[C@H](O)[C@@H](O)[C@H](O)[C@H]1CO [UV-4B] | 29100 ng·h/mL

###

# experiment-description: Phase 1a single ascending dose study: UV-4 plasma concentrations and PK parameters (LC-MS/MS, noncompartmental)
# Type: in vivo
# test-conditions: both sexes, human, plasma, po, 30 mg, 30 mg single oral dose; Geo Mean; read-out: AUC(0-inf)
quantity-kind: AUC(0-inf)

compound | result
COCCCCCCCCCN1C[C@H](O)[C@@H](O)[C@H](O)[C@H]1CO [UV-4B] | 1260 ng·h/mL

###

# experiment-description: Phase 1a single ascending dose study: UV-4 in pooled urine, urinary recovery and renal clearance
# Type: in vivo, human
# test-conditions: both sexes, human, urine, po, 360 mg, 360 mg single oral dose; Ar Mean
# Experimental: Serial blood samples were collected at pre-dose (0 hour) and 0.5, 1, 1.5, 2, 2.5, 3, 4, 6, 9, 12, 18, 24, 36, and 48 hours post-dose for assessment of UV-4 concentrations in plasma. […] Plasma and urine concentrations of UV-4 were determined by means of validated, sensitive, and specific high-performance liquid chromatography/tandem mass spectrometric (LC-MS/MS) assays. […] Additional UV-4 PK parameters may be calculated at the discretion of the […]
quantity-kind: CL renal (mL/min)

compound | quantitative-readout
COCCCCCCCCCN1C[C@H](O)[C@@H](O)[C@H](O)[C@H]1CO [UV-4B] | 235

###

# experiment-description: Phase 1a single ascending dose study: UV-4 plasma concentrations and PK parameters (LC-MS/MS, noncompartmental)
# Assay type: in vivo
# test-conditions: both sexes, human, plasma, po, 1000 mg, 1000 mg single oral dose; Ar Mean; read-out: AUC(0-8)
quantity-kind: AUC(0-t) (ng·h/mL)

item-smiles | unit-text | quantitative-readout
COCCCCCCCCCN1C[C@H](O)[C@@H](O)[C@H](O)[C@H]1CO | ng·h/mL | 38700

###

# experiment-description: Phase 1a single ascending dose study: UV-4 plasma concentrations and PK parameters (LC-MS/MS, noncompartmental)
# Type: in vivo
# test-conditions: both sexes, human, plasma, po, 360 mg, 360 mg single oral dose; Geo Mean; read-out: AUC(0-inf)

item-smiles | AUC(0-inf)
COCCCCCCCCCN1C[C@H](O)[C@@H](O)[C@H](O)[C@H]1CO | 13700 ng·h/mL

###

# experiment-description: Phase 1a single ascending dose study: UV-4 plasma concentrations and PK parameters (LC-MS/MS, noncompartmental)
# Assay type: in vivo
# test-conditions: both sexes, human, plasma, oral, Phase 1a study, 3 to 1000 mg; read-out: Mean half-life, range across dose groups
quantity-kind: half-life

item-smiles | quantity-kind | result
COCCCCCCCCCN1C[C@H](O)[C@@H](O)[C@H](O)[C@H]1CO | half-life | 8.14 to 12 h

###

# experiment-description: Phase 1a single ascending dose study: UV-4 plasma concentrations and PK parameters (LC-MS/MS, noncompartmental)
# Type: in vivo
# test-conditions: both sexes, human, plasma, po, 30 mg, 30 mg single oral dose; Geometric Mean; read-out: AUC(0-inf)

compound | AUC(0-inf) (ng·h/mL)
COCCCCCCCCCN1C[C@H](O)[C@@H](O)[C@H](O)[C@H]1CO [UV-4, N-(9’-methoxynonyl)-1-deoxynojirimycin] | 1260

###

# experiment-description: Phase 1a single ascending dose study: UV-4 plasma concentrations and PK parameters (LC-MS/MS, noncompartmental)
# Format: in vivo
# test-conditions: both sexes, human, plasma, po, 1000 mg, 1000 mg single oral dose; Geo Mean; read-out: t1/2 (converted)
quantity-kind: half-life (h)

item-smiles | unit-text | quantitative-readout
COCCCCCCCCCN1C[C@H](O)[C@@H](O)[C@H](O)[C@H]1CO | h | 8.6

###

# experiment-description: Phase 1a single ascending dose study: UV-4 plasma concentrations and PK parameters (LC-MS/MS, noncompartmental)
# Type: in vivo
# test-conditions: both sexes, human, plasma, po, 180 mg, 180 mg single oral dose; Geo Mean; read-out: Cmax
# Procedure: UV-4 ((2R,3R,4R,5S)-2-(hydroxymethyl)-1-(9-methoxynonyl)piperidine-3,4,5-triol, also called N-(9’-methoxynonyl)-1-deoxynojirimycin, or MON-DNJ) hydrochloride was evaluated in a first-in-human, randomized, single-center, double-blind, placebo-controlled, parallel group, single ascending dose Phase 1a clinical trial in healthy subjects (Figs 1 and 2, ClinicalTrials.gov Identifier NCT02061358 https://clinicaltrials.gov/ct2/show/NCT02061358). […]
quantity-kind: Cmax (ng/mL)

item-smiles | quantitative-readout
COCCCCCCCCCN1C[C@H](O)[C@@H](O)[C@H](O)[C@H]1CO | 2060

###

# experiment-description: Phase 1a single ascending dose study: UV-4 plasma concentrations and PK parameters (LC-MS/MS, noncompartmental)
# Format: in vivo
# test-conditions: both sexes, human, plasma, po, 30 mg, 30 mg single oral dose; Geo Mean; read-out: Vz/F

item-smiles | unit-text | Vd/F
COCCCCCCCCCN1C[C@H](O)[C@@H](O)[C@H](O)[C@H]1CO | L | 344

###

# experiment-description: Phase 1a single ascending dose study: UV-4 plasma concentrations and PK parameters (LC-MS/MS, noncompartmental)
# Format: in vivo
# test-conditions: both sexes, human, plasma, po, 3 mg, 3 mg single oral dose; Geometric Mean; read-out: AUC(0-inf)
quantity-kind: AUC(0-inf) (ng·h/mL)

item-smiles | quantitative-readout
COCCCCCCCCCN1C[C@H](O)[C@@H](O)[C@H](O)[C@H]1CO | 94.6

###

# experiment-description: Phase 1a single ascending dose study: UV-4 plasma concentrations and PK parameters (LC-MS/MS, noncompartmental)
# Format: in vivo
# test-conditions: both sexes, human, plasma, po, 3 mg, 3 mg single oral dose; Ar Mean; read-out: t1/2 (converted)

item-smiles | half-life, min
COCCCCCCCCCN1C[C@H](O)[C@@H](O)[C@H](O)[C@H]1CO | 642

###

# experiment-description: Phase 1a single ascending dose study: UV-4 plasma concentrations and PK parameters (LC-MS/MS, noncompartmental)
# Format: in vivo
# test-conditions: both sexes, human, plasma, po, 3 mg, 3 mg single oral dose; Geo Mean; read-out: AUC(0-inf)

item-smiles | AUC(0-inf) (ng·h/mL)
COCCCCCCCCCN1C[C@H](O)[C@@H](O)[C@H](O)[C@H]1CO | 94.6

###

# experiment-description: Phase 1a single ascending dose study: UV-4 plasma concentrations and PK parameters (LC-MS/MS, noncompartmental)
# Assay type: in vivo
# test-conditions: both sexes, human, plasma, po, 3 mg, 3 mg single oral dose; median; read-out: tmax
quantity-kind: Tmax (min)

item-smiles | quantity-kind | quantitative-readout
COCCCCCCCCCN1C[C@H](O)[C@@H](O)[C@H](O)[C@H]1CO | Tmax | 30

All figures here come from paper PMC9387934.
